target: AbdA (Hox);Grh (Drosophila melanogaster?;Drosophila …, UniProt P29555;P13002 261-590;551-1333, |); test: EMSA; EMSA, 20 ul, 30 min, room temperature; 5X buffer as printed: 20% glycerol, 1 mg/ml BSA, 2.5 mM EDTA, '50mM 1M tris' pH 7.5, 50 mM KCl, 5 mM MgCl2, 2.5 mM DTT, 90 ug/ml poly(dI-dC); proteins 100-200 ng; conditions: protein: recombinant;recombinant; tags: 6xHis;6xHis; copies: 1;2
Sequence (P29555 261-590, chain 1 of 2): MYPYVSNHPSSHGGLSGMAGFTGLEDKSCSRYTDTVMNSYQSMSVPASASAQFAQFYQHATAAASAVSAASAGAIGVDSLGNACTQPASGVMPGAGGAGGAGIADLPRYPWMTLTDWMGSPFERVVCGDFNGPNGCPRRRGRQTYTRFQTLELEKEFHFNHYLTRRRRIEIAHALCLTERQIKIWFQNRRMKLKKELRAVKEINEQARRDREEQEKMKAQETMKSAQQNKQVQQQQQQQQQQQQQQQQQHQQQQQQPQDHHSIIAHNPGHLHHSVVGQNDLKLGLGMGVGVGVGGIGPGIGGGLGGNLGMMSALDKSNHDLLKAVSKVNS
Sequence (P13002 551-1333, chain 2 of 2): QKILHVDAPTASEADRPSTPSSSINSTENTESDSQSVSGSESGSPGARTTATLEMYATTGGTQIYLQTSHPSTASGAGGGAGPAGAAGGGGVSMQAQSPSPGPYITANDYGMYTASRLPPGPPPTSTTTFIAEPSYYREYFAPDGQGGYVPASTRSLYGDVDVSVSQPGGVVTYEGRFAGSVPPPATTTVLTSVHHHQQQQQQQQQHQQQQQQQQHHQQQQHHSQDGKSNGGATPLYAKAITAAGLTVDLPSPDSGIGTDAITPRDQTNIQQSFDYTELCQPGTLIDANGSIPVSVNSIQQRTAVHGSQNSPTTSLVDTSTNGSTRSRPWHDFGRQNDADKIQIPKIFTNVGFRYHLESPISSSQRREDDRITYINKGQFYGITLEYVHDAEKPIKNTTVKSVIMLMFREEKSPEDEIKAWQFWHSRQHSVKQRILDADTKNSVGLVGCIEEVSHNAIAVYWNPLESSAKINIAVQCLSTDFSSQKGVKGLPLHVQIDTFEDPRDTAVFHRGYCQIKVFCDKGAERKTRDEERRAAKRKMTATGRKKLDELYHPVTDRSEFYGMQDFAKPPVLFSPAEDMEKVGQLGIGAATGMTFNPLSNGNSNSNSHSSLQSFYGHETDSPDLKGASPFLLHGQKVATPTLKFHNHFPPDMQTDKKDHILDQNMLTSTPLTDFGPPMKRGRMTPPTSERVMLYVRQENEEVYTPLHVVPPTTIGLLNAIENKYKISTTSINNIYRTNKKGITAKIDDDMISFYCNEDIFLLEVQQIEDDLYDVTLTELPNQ
PROPERTY_LABEL: binding result

motif-28 (dsDNA) DNA 1: AAGCCGAGCCTGAATCAGGTACTCAAATTGTCGC DNA 2: GCGACAATTTGAGTACCTGATTCAGGCTCGGCTT
binds
motif-30 Exd mutant (dsDNA) DNA 1: GAAACAGGATAACCATAACTGCTCC DNA 2: GGAGCAGTTATGGTTATCCTGTTTC
binds
